Read-out: Tissue Factor, F3 (gene 2152)
Assay Notes: BSK_CASM3C_TissueFactor: BioMAP Diversity Plus: CASM3C Assay for Tissue Factor Biomarker Activity (AID 2283052);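 note: cell surface tissue factor protein level read by ELISA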
Details: primary human coronary artery smooth muscle cells; actives raise or lower the signal
Calls of active or inactive are those of the source. Rule for the calls: active = hit-call score of the fitted dose curve at least 0.9, where 1 is the maximum; inactive = score below 0.9.
Result Type: outcome

CC[C@H]1CC[C@H](NCc2cc3c(cc2OC)[C@H]2C[C@H]2C(=O)N3C)[C@H](c2ccccc2)N1    inactive
CCOc1cccc(-n2cc(C(=O)N3CCN(c4cc(C(=O)O)c5ccccc5c4)CC3)nc2-c2ccc(C)cc2)c1    inactive
C1N2CN3CN1CN(C2)C3    inactive
CCCCCCCCO    inactive
Nc1nc2ncc(CNc3ccc(C(=O)N[C@@H](CCC(=O)O)C(=O)O)cc3)nc2c(=O)[nH]1    inactive

Here's the next entry for you.
Using the record for CC(=O)OC[C@H]1O[C@@](COC(C)=O)(O[C@H]2O[C@H](COC(C)=O)[C@@H](OC(C)=O)[C@H](OC(C)=O)[C@H]2OC(C)=O)[C@@H](OC(C)=O)[C@@H]1OC(C)=O , report its outcome.
inactive

---

Target Or Test System: Aryl hydrocarbon receptor (Homo sapiens)
Assay Notes: ATG_Ahr_CIS: Attagene CIS-FACTORIAL HepG2 Assay for human Aryl Hydrocarbon Receptor (Ahr) (AID 2282930)
Details: HepG2 AhR cis-factorial reporter transcription; actives raise or lower the signal
The source made the active and inactive calls. Rule for the calls: active = hit-call score of the fitted dose curve at least 0.9, where 1 is the maximum; inactive = score below 0.9.
Can you answer with just one of these options? active, inactive

Outcome logged for CC(C)=CCCC(C)=CC=O in this assay:
active

Outcome logged for CCCC(=O)OCC in this assay:
inactive

Outcome logged for CCCCCCCCO in this assay:
inactive

Outcome logged for Nc1cccc(N)c1 in this assay:
inactive

Outcome logged for CCc1cc(SCc2sc(-c3ccc(C(F)(F)F)cc3)nc2CN2CCN(c3ccc(OC)cc3)CC2)ccc1OCC(=O)O in this assay:
active

Outcome logged for C[C@](N)(Cc1ccc(O)c(O)c1)C(=O)O in this assay:
inactive

Outcome logged for CC(C)CCO in this assay:
inactive

Outcome logged for O=C1OC(=O)C2C3C=CC(C3)C12 (centres undefined) in this assay:
inactive

Outcome logged for CCNc1ccccc1 in this assay:
inactive

Outcome logged for C=CCCCCCCCCC(=O)O in this assay:
inactive

Outcome logged for Cc1[nH]cnc1C[C@H]1CCc2c(C)c3ccccc3n2C1=O in this assay:
inactive

Outcome logged for Cn1cnc([N+](=O)[O-])c1Sc1ncnc2nc[nH]c12 in this assay:
inactive

Outcome logged for O=C(O)CC(O)C(=O)O (centres undefined) in this assay:
inactive

Outcome logged for CCOCCO in this assay:
inactive

Outcome logged for CC(C)c1cccc(C(C)C)c1N1C(=O)c2ccc(O)cc2C1=O in this assay:
inactive

Outcome logged for O=C(O)CCN(C1(C(=O)NO)CCCC1)S(=O)(=O)c1ccc(Oc2ccc(F)cc2)cc1 in this assay:
inactive

Outcome logged for COC(=O)CC(=O)OC in this assay:
inactive

Outcome logged for O=c1n(CC2CO2)c(=O)n(CC2CO2)c(=O)n1CC1CO1 (centres undefined) in this assay:
inactive

Outcome logged for Cn1c(=O)cc(Oc2ccc(F)cc2F)c2cnc(NCC(C)(C)O)nc21 in this assay:
inactive

Outcome logged for C1=CCCC=CCCC=CCC1 in this assay:
inactive

Outcome logged for Clc1nc(Cl)c(Cl)c(Cl)c1Cl in this assay:
inactive

Outcome logged for CC[C@H]1OC(=O)[C@H](C)[C@@H](O[C@H]2C[C@@](C)(OC)[C@@H](O)[C@H](C)O2)[C@H](C)[C@@H](O[C@@H]2O[C@H](C)C[C@H](N(C)C)[C@H]2O)[C@](C)(O)C[C@@H](C)C(=O)[C@H](C)[C@@H](O)[C@]1(C)O in this assay:
inactive

Outcome logged for Cc1ccc(N)cc1O in this assay:
active

Outcome logged for O=C(O)c1cccc(N(Cc2cccnc2)c2ccc(OC(F)F)c(OC(F)F)c2)c1 in this assay:
inactive

Outcome logged for COC(=O)c1c(Cl)c(Cl)c(C(=O)OC)c(Cl)c1Cl in this assay:
inactive

Outcome logged for Fc1ccccc1[C@@H](F)COC1CCC(Nc2ncnc3[nH]ncc23)CC1 (some centres undefined) in this assay:
inactive

Outcome logged for CCN(C(=O)c1cc(C)cc(OC[C@H](C)Nc2ccncc2)c1)C(C)C in this assay:
inactive

Outcome logged for CCCCC(CC)COC(=O)CCCCCCCCC(=O)OCC(CC)CCCC (centres undefined) in this assay:
inactive

Outcome logged for CNCc1ccc(NC(=O)c2c[nH]c3c2C(=O)CCC3)cc1 in this assay:
active

Outcome logged for CC(C)=CCCC(C)CCO (centres undefined) in this assay:
inactive

Outcome logged for CCOC(=O)CC(CC(=O)OCC)(OC(C)=O)C(=O)OCC in this assay:
inactive

Outcome logged for CCCCCCc1ccc(O)cc1O in this assay:
inactive

Outcome logged for COc1ccc(-n2nc(C(F)F)cc2-c2ccc(S(C)=O)cc2)cc1 (centres undefined) in this assay:
inactive

Outcome logged for COC(=O)c1ccccc1O in this assay:
inactive

Outcome logged for O=C(CCCCCCCCc1cccnc1)N1CCC(C=C(c2ccccc2)c2ccccc2)CC1 in this assay:
active

Outcome logged for CC[C@H]1CC[C@H](NCc2cc3c(cc2OC)[C@H]2C[C@H]2C(=O)N3C)[C@H](c2ccccc2)N1 in this assay:
inactive

Outcome logged for Cn1c(=O)c2c(ncn2C)n(C)c1=O in this assay:
inactive

Outcome logged for CC(O)CN(CCN(CC(C)O)CC(C)O)CC(C)O (centres undefined) in this assay:
inactive

Outcome logged for C=CC(=C)CCC=C(C)C in this assay:
active

---

Target Or Test System: human Vitamin D Receptor (VDR), VDR (gene 7421) (UniProt P11473)
Sequence (P11473 whole entry, looked up): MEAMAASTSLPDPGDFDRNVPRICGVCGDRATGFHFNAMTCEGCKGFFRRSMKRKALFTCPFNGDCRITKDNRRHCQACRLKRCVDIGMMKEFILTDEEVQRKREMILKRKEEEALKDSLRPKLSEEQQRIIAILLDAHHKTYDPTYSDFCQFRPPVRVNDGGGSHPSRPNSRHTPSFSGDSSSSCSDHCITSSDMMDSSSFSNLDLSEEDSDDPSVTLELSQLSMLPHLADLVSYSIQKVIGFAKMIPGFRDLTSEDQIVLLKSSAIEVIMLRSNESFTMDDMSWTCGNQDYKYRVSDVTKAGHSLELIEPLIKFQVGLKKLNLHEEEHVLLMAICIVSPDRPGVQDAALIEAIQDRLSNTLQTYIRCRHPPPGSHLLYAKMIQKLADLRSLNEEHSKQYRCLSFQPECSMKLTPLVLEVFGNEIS
Assay Notes: ATG_VDR_TRANS: Attagene TRANS-FACTORIAL HepG2 Assay for human Vitamin D Receptor (VDR) (AID 2283022)
Records with an inconclusive call do not appear. Activity calls are given as the source filed them. Rule for the calls: active = hit-call score of the fitted dose curve at least 0.9, where 1 is the maximum; inconclusive = response in the unintended direction; inactive = score below 0.9.
Can you answer with just one of these options? true = active, false = inactive

Outcome logged for O=C(CCCCCCCCc1cccnc1)N1CCC(C=C(c2ccccc2)c2ccccc2)CC1 in this assay:
true

Outcome logged for CC(C)c1cccc(C(C)C)c1N1C(=O)c2ccc(O)cc2C1=O in this assay:
false

Outcome logged for O=c1n(CC2CO2)c(=O)n(CC2CO2)c(=O)n1CC1CO1 (stereo not drawn) in this assay:
false

Outcome logged for CCOCCOCCOCCO in this assay:
false

Outcome logged for Cc1ccc(S(=O)(=O)O)cc1C in this assay:
false

Outcome logged for Cc1[nH]cnc1C[C@H]1CCc2c(C)c3ccccc3n2C1=O in this assay:
false

Outcome logged for O=C(O)c1cccc(N(Cc2cccnc2)c2ccc(OC(F)F)c(OC(F)F)c2)c1 in this assay:
false

Outcome logged for CC(C)=CCC/C(C)=C\CO in this assay:
false

Outcome logged for CN(C)c1ccc(Cc2ccc(N(C)C)cc2)cc1 in this assay:
false

Outcome logged for CC1(C)C(=O)N(Br)C(=O)N1Br in this assay:
false

Outcome logged for COc1cccc(-c2ccc(/C=C\CN3CCCCCC3)cc2Cl)c1 in this assay:
false

Outcome logged for C1N2CN3CN1CN(C2)C3 in this assay:
false

Outcome logged for Cc1ccc(N)cc1O in this assay:
false

---

Read-out: Interferon-gamma inducible Protein 10 (IP10), CXCL10 (gene 3627)
Assay Notes: BSK_hDFCGF_IP10: BioMAP Diversity Plus: hDFCGF Assay for Interferon-gamma inducible Protein 10 (IP10) Biomarker Activity (AID 2283053)
Details: primary human foreskin fibroblasts; actives raise or lower the signal
Active and inactive are the calls of the source. How the source made its calls: active means hit-call score of the fitted dose curve at least 0.9, where 1 is the maximum; inactive means score below 0.9.
Result Type: outcome

CC(C)CC(C)(O)C#CC(C)(O)CC(C)C (stereo not drawn)    inactive
COCCOc1cc2cc(C(=O)NC3CCN(C(C)C)CC3)n(CC(=O)Nc3ccc(Cl)cn3)c2cn1    inactive
COc1ccc(-n2nc(C(F)F)cc2-c2ccc(S(C)=O)cc2)cc1 (stereo not drawn)    inactive

---

Read-out: Monokine induced gamma interferon (MIG), CXCL9 (gene 4283)
Assay Notes: BSK_SAg_MIG: BioMAP Diversity Plus: SAg Assay for Monokine induced gamma interferon (MIG) Biomarker Activity (AID 2283092)
Details: primary human HUVEC with PBMC; actives raise or lower the signal
Activity calls are given as the source filed them. How the source made its calls: active means hit-call score of the fitted dose curve at least 0.9, where 1 is the maximum; inactive means score below 0.9.
Can you answer with just one of these options? 1 (yes) = active, 0 (no) = inactive

Outcome logged for CCCCCCCCO in this assay:
0 (no)

Outcome logged for Cc1c(-c2cccnc2)c2ccccc2n1CCCCC(=O)O in this assay:
0 (no)

Outcome logged for CC(O)CN(CCN(CC(C)O)CC(C)O)CC(C)O (stereo not drawn) in this assay:
0 (no)

Outcome logged for Cc1ccc(C)c(O)c1 in this assay:
0 (no)

Outcome logged for C=CCCCCCCCCC(=O)O in this assay:
0 (no)

Outcome logged for CCn1nc(Cc2ccccc2)cc1C1CCN(C[C@H]2C[C@H](N(C)[C@@H](C(=O)O)C(C)C)C[C@@H]2c2cccc(F)c2)CC1 in this assay:
0 (no)

Outcome logged for Cn1c(=O)c2c(ncn2C)n(C)c1=O in this assay:
0 (no)

Outcome logged for CCCCC(CC)COC(=O)c1ccc(C(=O)OCC(CC)CCCC)cc1 (stereo not drawn) in this assay:
0 (no)

Outcome logged for CC(C)=CCC/C(C)=C/CO in this assay:
0 (no)

Outcome logged for C1N2CN3CN1CN(C2)C3 in this assay:
0 (no)

Outcome logged for CC1=CC(=O)CC(C)(C)C1 in this assay:
0 (no)

Outcome logged for CCOC(=O)c1ccc(C2CCC(NC[C@H](O)COc3ccc(O)c(NS(C)(=O)=O)c3)CC2)cc1 (stereo partly drawn) in this assay:
0 (no)

Outcome logged for CCOCCOCCOCCO in this assay:
0 (no)

Outcome logged for O=C(OC[C@H]1O[C@@H](OC(=O)c2cc(O)c(O)c(OC(=O)c3cc(O)c(O)c(O)c3)c2)[C@H](OC(=O)c2cc(O)c(O)c(OC(=O)c3cc(O)c(O)c(O)c3)c2)[C@@H](OC(=O)c2cc(O)c(O)c(OC(=O)c3cc(O)c(O)c(O)c3)c2)[C@@H]1OC(=O)c1cc(O)c(O)c(OC(=O)c2cc(O)c(O)c(O)c2)c1)c1cc(O)c(O)c(OC(=O)c2cc(O)c(O)c(O)c2)c1 in this assay:
0 (no)

Outcome logged for O=C(O)CCN(C1(C(=O)NO)CCCC1)S(=O)(=O)c1ccc(Oc2ccc(F)cc2)cc1 in this assay:
0 (no)

Outcome logged for O=C(O)CC(O)C(=O)O (stereo not drawn) in this assay:
0 (no)

Outcome logged for Cn1c(=O)cc(Oc2ccc(F)cc2F)c2cnc(NCC(C)(C)O)nc21 in this assay:
0 (no)

Outcome logged for Nc1nc2ncc(CNc3ccc(C(=O)N[C@@H](CCC(=O)O)C(=O)O)cc3)nc2c(=O)[nH]1 in this assay:
0 (no)

Outcome logged for Cc1ccc(N)cc1O in this assay:
0 (no)

Outcome logged for O=C(O)c1cc(N=Nc2ccc(S(=O)(=O)Nc3ccccn3)cc2)ccc1O in this assay:
0 (no)

Outcome logged for O=c1[nH]c2ccc(S(=O)CCN3CCC(Cc4ccc(F)cc4)CC3)cc2o1 (stereo not drawn) in this assay:
0 (no)

Outcome logged for CCOCCO in this assay:
0 (no)

Outcome logged for CCC(C)(C)C(=O)O[C@H]1C[C@@H](C)C=C2C=C[C@H](C)[C@H](CC[C@@H]3C[C@@H](O)CC(=O)O3)[C@H]21 in this assay:
0 (no)

Outcome logged for CC[C@H]1OC(=O)[C@H](C)[C@@H](O[C@H]2C[C@@](C)(OC)[C@@H](O)[C@H](C)O2)[C@H](C)[C@@H](O[C@@H]2O[C@H](C)C[C@H](N(C)C)[C@H]2O)[C@](C)(O)C[C@@H](C)C(=O)[C@H](C)[C@@H](O)[C@]1(C)O in this assay:
0 (no)

Outcome logged for CCCN(C1CCN(C(=O)C2CCNCC2)CC1)[C@@H]1CCc2ccc(OC)cc2C1 in this assay:
0 (no)

Outcome logged for O=C1CCCCCN1 in this assay:
0 (no)

Outcome logged for CCCCCCCCCCCCc1ccccc1 in this assay:
0 (no)

Outcome logged for CCNc1ccccc1 in this assay:
0 (no)

Outcome logged for CC(C)=CCC/C(C)=C\CO in this assay:
0 (no)

Outcome logged for CCOc1cccc(-n2cc(C(=O)N3CCN(c4cc(C(=O)O)c5ccccc5c4)CC3)nc2-c2ccc(C)cc2)c1 in this assay:
1 (yes)

Outcome logged for Cn1cnc([N+](=O)[O-])c1Sc1ncnc2nc[nH]c12 in this assay:
0 (no)

Outcome logged for CC[C@H]1CC[C@H](NCc2cc3c(cc2OC)[C@H]2C[C@H]2C(=O)N3C)[C@H](c2ccccc2)N1 in this assay:
0 (no)

Outcome logged for On1ccccc1=S in this assay:
1 (yes)

Outcome logged for COc1ccc2sc(C(=O)Nc3nnn[nH]3)c(OC(C)C)c2c1 in this assay:
1 (yes)

Outcome logged for CCN(C(=O)c1cc(C)cc(OC[C@H](C)Nc2ccncc2)c1)C(C)C in this assay:
0 (no)

Outcome logged for CNS(=O)(=O)c1cc(C(=O)N2CCC(CCN3C4CCC3CC(n3c(C)nc5ccccc53)C4)(c3cccc(F)c3)CC2)c(Cl)cc1F (stereo not drawn) in this assay:
0 (no)

Outcome logged for O=P(OC(CCl)CCl)(OC(CCl)CCl)OC(CCl)CCl in this assay:
0 (no)

Outcome logged for CC(=O)OC[C@H]1O[C@@](COC(C)=O)(O[C@H]2O[C@H](COC(C)=O)[C@@H](OC(C)=O)[C@H](OC(C)=O)[C@H]2OC(C)=O)[C@@H](OC(C)=O)[C@@H]1OC(C)=O in this assay:
0 (no)
